TEST TARGET: PIGQ/HLA complex on PIGQ-pulsed T2 cells (human)
TEST PROTOCOL: flow cytometry, T2 cells pulsed with 25 µM PIGQ peptide, antibody 10 µg/mL
READOUT KIND: Percentage of Positive Cells (%)

>>> value_observed("P01264-IgG1-SI (antibody, V domains shown) VH: EVQLVESGGGLVKPGGSLRLSCAASGFTFSNAWMNWVRQAPGKGLEWVGRIKSKTDGGTTDYAAPVKGRFTISRHDSKNTLYLQMNSLKTEDTAVYYCATDPRIAVTGTDYYYGMDVWGQGTTVTVSS VL: DIVMTQTPSFLSASVGDRVTITCRASQDISNYLNWYQQKPGKAPKLLIYDASNLETGVPSRFSGSGSGTDFTFTISSLQPEDIATYYCQQYDNLPITFGQGTRLEIK")
4.93
